# Target Or Test System: TRKA (Homo sapiens (Human))
# Sequence (P04629 441-796): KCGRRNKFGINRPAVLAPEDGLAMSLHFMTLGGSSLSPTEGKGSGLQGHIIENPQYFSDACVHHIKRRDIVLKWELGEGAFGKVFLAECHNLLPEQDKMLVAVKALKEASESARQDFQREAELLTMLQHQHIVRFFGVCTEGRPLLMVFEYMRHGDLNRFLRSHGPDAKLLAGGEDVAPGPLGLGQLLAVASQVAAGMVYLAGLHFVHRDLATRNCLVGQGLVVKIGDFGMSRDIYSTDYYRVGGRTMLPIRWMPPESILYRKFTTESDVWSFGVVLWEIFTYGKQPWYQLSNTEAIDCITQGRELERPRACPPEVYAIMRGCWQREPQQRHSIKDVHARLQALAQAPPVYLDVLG
# Experiment Description: Isolated TRK enzyme assay (HTRF KinEASE-TK), PV3144 TrkA enzyme assay
# Conditions Used: arithmetic mean where more than one reading
Reported Property: pIC50
Quick note: pIC50 values are minus log10 of concentrations in mol/L.

In the examples that follow, each entry is paired with its recorded pIC50.
CC(C)(CO)n1cc(C(=O)c2cncc(NC(=O)Cc3ccc(C#N)cc3)c2)c2cncc(F)c21
7.40
CC(CO)n1cc(C(=O)c2cncc(NC(=O)Cn3cc(C4CC4)nn3)c2)c2cnccc21 (single isomer, unassigned) [Example 61]
7.18
CC(CO)n1cc(C(=O)c2cncc(NC(=O)Cn3ccc(C(F)(F)F)n3)c2)c2cncc(F)c21 (single isomer, unassigned) [Example 210]
7.34
CC(C)n1cc(C(=O)c2ccnc(NC(=O)Cc3ccc(Cl)cc3)c2)c2cnccc21
7.82
CC(C)n1cc(C(=O)c2ccnc(NC(=O)Cc3ccccc3OC(F)(F)F)c2)c2cnccc21
7.58
CC(C)n1cc(C(=O)c2cncc(NC(=O)Cn3cc(C(F)(F)F)nn3)c2)c2cncc(F)c21
7.54

I'd like to know its pIC50. The compound in question is CC(C)n1cc(C(=O)c2cncc(NC(=O)Cc3cncn3C)c2)c2cnccc21
5.80

Cited source for all entries: patent US9163021B2
